These data points were gathered from ChEMBL document CHEMBL1961873.

inhibition for assorted compounds
# subjectOfTest: Fibroblast growth factor receptor 4 (Homo sapiens)
# details: at 1 µM;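 also: reported figure is the averaged percent inhibition of FGFR4, from the GSK PKIS kinase screening panel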

compound	inhibition [%]
COc1cc2ncn(-c3cc(OCc4ccccc4C(F)(F)F)c(C(=O)N(C)C)s3)c2cc1OC	2.15
CC1=C(C(=O)Nc2cc(Cl)c3[nH]ncc3c2)C(c2ccc(C(F)(F)F)cc2)CC(=O)N1 (stereo not given)	2.25
Fc1ccc(-c2nn3ccccc3c2-c2ccncc2)cc1	2.03
CCN1CCC(CC(=O)Nc2n[nH]c3nnc(-c4cccc(F)c4F)cc23)CC1	-2.43
NC(=O)c1sc(-n2cnc3ccc(C(F)(F)F)cc32)cc1OCc1ccccc1Br	2.14
c1cc(-c2cnn3nc(N4CCOCC4)ccc23)nc(NC2CC2)n1	1.73
CN1CCC(n2cnc(-c3ccc(F)cc3)c2-c2ccnc(N)n2)CC1	4.3
CS(=O)(=O)CCNCc1ccc(-c2ccc3ncnc(Nc4ccc(OCc5ccccc5)c(C(F)(F)F)c4)c3c2)o1	2.14
N#Cc1c(NC(=O)CN2CCOCC2)sc2c1CCCC2	2.81
CC(=O)NCc1cccc(C#Cc2cncnc2Nc2ccc(OCc3cccc(F)c3)c(Cl)c2)c1	-0.23
CCCN1CCC(c2ccc(Nc3nc(Nc4cc(F)ccc4C(N)=O)c4cc[nH]c4n3)c(OC)c2)CC1	12.4
COc1cccc(-n2ncc3c(N/N=C/c4ccc(F)cc4)ncnc32)c1	2.78
CC(C)(CO)CNC(=O)c1ccc2c(c1)/C(=N/Nc1ccc(S(N)(=O)=O)cc1)C(=O)N2	-0.62
CCc1nn2ncccc2c1-c1ccnc(NC2CC2)n1	1.27
COc1cc2c(cc1Nc1nc(Nc3ccsc3C(N)=O)c3cc[nH]c3n1)N(C(=O)CN(C)C)CCC2(C)C	4.78
